assay: Inhibition of recombinant hepatitis C virus NS3 helicase domain using DNA duplex S(DB2)a labelled with [gamma-32P]ATP as substrate after 30 mins; set-up: species or system Hepacivirus hominis
So basically: is IC50 under 200 µM? Then Met. Not under? Then Not met.

[
  {
    "Chemical Structure": "CN1CCN(c2ccc3nc(-c4ccc5nc(CNC(=O)CCCCCCCC(=O)NCc6nc7ccc(-c8nc9ccc(N%10CCN(C)CC%10)cc9[nH]8)cc7[nH]6)[nH]c5c4)[nH]c3c2)CC1",
    "Classification": "Met"
  },
  {
    "Chemical Structure": "CN1CCN(c2ccc3nc(-c4ccc5nc(CNC(=O)CCCCCC(=O)NCc6nc7ccc(-c8nc9ccc(N%10CCN(C)CC%10)cc9[nH]8)cc7[nH]6)[nH]c5c4)[nH]c3c2)CC1",
    "Classification": "Met"
  },
  {
    "Chemical Structure": "CN1CCN(c2ccc3nc(-c4ccc5nc(CNC(=O)CCCC(=O)NCc6nc7ccc(-c8nc9ccc(N%10CCN(C)CC%10)cc9[nH]8)cc7[nH]6)[nH]c5c4)[nH]c3c2)CC1",
    "Classification": "Not met"
  },
  {
    "Chemical Structure": "CN1CCN(c2ccc3nc(-c4ccc5nc(CNC(=O)CCC(=O)NCc6nc7ccc(-c8nc9ccc(N%10CCN(C)CC%10)cc9[nH]8)cc7[nH]6)[nH]c5c4)[nH]c3c2)CC1",
    "Classification": "Not met"
  },
  {
    "Chemical Structure": "CN1CCN(c2ccc3nc(-c4ccc5nc(CNC(=O)CCCCC(=O)NCc6nc7ccc(-c8nc9ccc(N%10CCN(C)CC%10)cc9[nH]8)cc7[nH]6)[nH]c5c4)[nH]c3c2)CC1",
    "Classification": "Met"
  },
  {
    "Chemical Structure": "CN(CCCOc1ccc(-c2nc3ccc(-c4nc5ccc(N6CCN(C)CC6)cc5[nH]4)cc3[nH]2)cc1)CCCOc1ccc(-c2nc3ccc(-c4nc5ccc(N6CCN(C)CC6)cc5[nH]4)cc3[nH]2)cc1",
    "Classification": "Met"
  }
]

Kindly review the next compound as well.
Bench note: check whether `CN1CCN(c2ccc3nc(-c4ccc5nc(CNC(=O)CCCCCCCCCCCC(=O)NCc6nc7ccc(-c8nc9ccc(N%10CCN(C)CC%10)cc9[nH]8)cc7[nH]6)[nH]c5c4)[nH]c3c2)CC1` shows IC50 below 200 µM
Met

* * *

tested on: Hepacivirus hominis; test: Inhibition of recombinant hepatitis C virus NS3 helicase domain NTPase activity by TLC
Calls of active or inactive are those of the source. The calls are words filed in the database; no cut-off is given here.
Test Readout: inhibition

[
  {
    "Chemical Structure": "CN1CCN(c2ccc3nc(-c4ccc5nc(CNC(=O)CCCCCCCCCCCC(=O)NCc6nc7ccc(-c8nc9ccc(N%10CCN(C)CC%10)cc9[nH]8)cc7[nH]6)[nH]c5c4)[nH]c3c2)CC1",
    "Measurement Target": "Hepacivirus hominis",
    "Test Readout": "inhibition",
    "Result": "inactive"
  },
  {
    "Chemical Structure": "CN1CCN(c2ccc3nc(-c4ccc5nc(CNC(=O)CCCCCC(=O)NCc6nc7ccc(-c8nc9ccc(N%10CCN(C)CC%10)cc9[nH]8)cc7[nH]6)[nH]c5c4)[nH]c3c2)CC1",
    "Measurement Target": "Hepacivirus hominis",
    "Test Readout": "inhibition",
    "Result": "inactive"
  },
  {
    "Chemical Structure": "CC(=O)NCc1nc2ccc(-c3nc4ccc(N5CCN(C)CC5)cc4[nH]3)cc2[nH]1",
    "Measurement Target": "Hepacivirus hominis",
    "Test Readout": "inhibition",
    "Result": "inactive"
  }
]

* * *

Assign IC50 to each entry below.
experiment: Inhibition of recombinant hepatitis C virus NS3 helicase domain using DNA duplex SM2 labelled with [gamma-32P]ATP as substrate after 30 mins; design: species or system Hepacivirus hominis
Answers are plain numbers, in µM.

[
  {
    "Chemical Structure": "CN1CCN(c2ccc3nc(-c4ccc5nc(CNC(=O)CCC(=O)NCc6nc7ccc(-c8nc9ccc(N%10CCN(C)CC%10)cc9[nH]8)cc7[nH]6)[nH]c5c4)[nH]c3c2)CC1",
    "Test Readout": "IC50",
    "Numeric Result": 240
  }
]

Report IC50 for `CN1CCN(c2ccc3nc(-c4ccc5nc(CNC(=O)CCCCCCCCCCCC(=O)NCc6nc7ccc(-c8nc9ccc(N%10CCN(C)CC%10)cc9[nH]8)cc7[nH]6)[nH]c5c4)[nH]c3c2)CC1`
9

The values you see were collected from ChEMBL document CHEMBL1821570.
